test system: miR-96−/− mice; experiment: Mechanical pain threshold (Von Frey paw withdrawal threshold) of hind paws after intragastric administration; type: in vivo, mouse; details: intragastric, 1 h after administration, three doses tested
Counter-ions that a name gives are not always drawn.
Answer each item with its documented dose group exhibiting the best analgesic effect.
The reply should be a number in mg/kg, with the unit left off.

### Prompt Please list dose group exhibiting the best analgesic effect recorded for the compound CC(C)(N)c1ncc(-c2ccc(OC(F)(F)F)cc2)[nH]1 [PF-04885614]
### Response 0.18

### Prompt // fetch dose group exhibiting the best analgesic effect given entry C[C@@H](C(N)=O)[C@H](N)c1nc2cc(C(C)(C)C)ccc2[nH]1 [PF-06305591, dihydrate]
### Response 0.06

### Prompt Look up and report measured dose group exhibiting the best analgesic effect for this entry: N#Cc1cc(S(=O)(=O)Nc2ncns2)ccc1Oc1ccc(-c2cccc(C(F)(F)F)c2)cc1-c1ccnc(CNCCC2CCNCC2)c1 [PF-06456384, trihydrochloride]
### Response 2

### Prompt Determine its reported dose group exhibiting the best analgesic effect: NC(=O)[C@@H]1CC[C@H](c2ccc(OCc3ccccc3F)cc2)N1 [CNV1014802]
### Response 30

Origin of values: patent US20240398762A1
